Cited source for all entries: patent US8536204B2

# PROTOCOL_DESCRIPTION: Determination of the logP values (formic acid method) by HPLC
# Format: physicochemical
# CONDITION_DETAILS: reversed-phase HPLC column (C 18), pH 3.4, formic acid method, pH 3.4; given in the preparation examples; read-out: log P (HCOOH)
So I've got a bunch of compounds here, and I need their chromatographic logP values.

For each of the compounds below, state chromatographic logP.
1. O=C(O)c1cnn(-c2cccnc2)c1
2. Cc1nn(-c2cccnc2)cc1C(=O)NCC(F)(F)F
3. CCNC(=O)c1cnn(-c2cccnc2)c1
4. FC(F)(F)CNC(=S)c1cnn(-c2cccnc2)c1
5. CCOC(=O)c1cn(-c2cccnc2)nc1C

[0.5, 1.45, 0.64, 1.97, 1.83]

For each of the compounds below, state chromatographic logP.
1. N#Cc1cnn(-c2cccnc2)c1
2. Cc1nn(-c2cccnc2)cc1C(=O)O

1: 0.98; 2: 0.77
